Target: cathepsin C (Bos taurus)
Construct: Purified cathepsin C from bovine spleen; from tissue; host or cells: bovine spleen
Sequence (Q3ZCJ8 231-394 limits assumed): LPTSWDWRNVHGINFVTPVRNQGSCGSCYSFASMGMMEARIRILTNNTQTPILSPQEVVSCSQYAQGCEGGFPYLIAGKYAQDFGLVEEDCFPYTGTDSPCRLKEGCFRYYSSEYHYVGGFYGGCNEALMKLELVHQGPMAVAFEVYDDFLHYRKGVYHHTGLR
Sequence (Q3ZCJ8 395-463 limits assumed): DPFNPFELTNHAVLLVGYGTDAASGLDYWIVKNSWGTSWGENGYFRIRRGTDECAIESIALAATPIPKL
Sequence (Q3ZCJ8 25-134 limits assumed): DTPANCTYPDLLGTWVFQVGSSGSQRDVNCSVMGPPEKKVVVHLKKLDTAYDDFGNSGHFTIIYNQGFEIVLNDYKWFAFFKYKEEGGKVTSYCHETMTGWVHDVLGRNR
Experiment: Selectivity against various proteases: cathepsin C (CTC)
Type: biochemical, bovine
PROPERTY: IC50

* CCOC(=O)C1CC12C(C)=C(C(=O)OC(c1ccccc1)c1ccccc1)N1C(=O)[C@H](Br)[C@H]1S2(=O)=O (stereo partly drawn) [Example 13 (1)] | 40 µM
* CC1=C(C(=O)OC(c2ccccc2)c2ccccc2)N2C(=O)[C@H](Br)[C@H]2S(=O)(=O)C12CC2(C)c1ccccc1 (stereo partly drawn) [Example 13 (2)] | 40 µM
* CC1=C(C(=O)OC(c2ccccc2)c2ccccc2)N2C(=O)[C@H](Br)[C@H]2S(=O)(=O)C12CC2(c1ccc(Cl)cc1)c1ccc(Cl)cc1 (single isomer, unassigned) [Example 12] | 55.3 µM
* CC1=C(C(=O)OC(c2ccccc2)c2ccccc2)N2C(=O)[C@H](Br)[C@H]2S(=O)(=O)C12CC2(c1ccc(F)cc1)c1ccc(F)cc1 (single isomer, unassigned) [Example 13] | 40 µM
* CO[C@H]1C(=O)N2C(C(=O)OC(c3ccccc3)c3ccccc3)=C(C)C3(CC3(c3ccccc3)c3ccccc3)S(=O)(=O)[C@H]12 (stereo partly drawn) [Example 9] | 10 µM
* CO[C@H]1C(=O)N2C(C(=O)OCC(Cl)(Cl)Cl)=C(C)C3(CC3(c3ccccc3)c3ccccc3)S(=O)(=O)[C@H]12 (stereo partly drawn) [Example 8] | 9.98 µM

---

Biological target: cathepsin D (Bos taurus, UniProt P80209)
Construct: Purified cathepsin D from bovine spleen; from tissue; host or cells: bovine spleen
Sequence (P80209 45-390): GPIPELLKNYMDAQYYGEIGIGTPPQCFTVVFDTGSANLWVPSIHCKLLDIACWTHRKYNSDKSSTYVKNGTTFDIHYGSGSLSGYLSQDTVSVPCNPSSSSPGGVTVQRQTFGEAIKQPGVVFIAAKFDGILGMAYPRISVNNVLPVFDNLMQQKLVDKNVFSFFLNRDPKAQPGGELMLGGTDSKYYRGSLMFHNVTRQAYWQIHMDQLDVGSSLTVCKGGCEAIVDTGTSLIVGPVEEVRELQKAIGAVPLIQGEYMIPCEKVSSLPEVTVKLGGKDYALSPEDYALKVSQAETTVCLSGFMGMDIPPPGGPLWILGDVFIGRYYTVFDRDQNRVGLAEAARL
Experiment: Selectivity against various proteases: cathepsin D (CTD)
Type: biochemical, bovine
Settings: cathepsin D, bovine spleen, pH 3.2, 30° C., 10 minute preincubation; read-out: CTD IC50 (converted)
Rule: IC50 below 20 µM gives Fulfilled. Equal to or above 20 µM gives Not fulfilled.

• CC1=C(C(=O)OC(c2ccccc2)c2ccccc2)N2C(=O)[C@H](Br)[C@H]2S(=O)(=O)C12CC2(c1ccc(Cl)cc1)c1ccc(Cl)cc1 (single isomer, unassigned) = Not fulfilled
• CC1=C(C(=O)OC(c2ccccc2)c2ccccc2)N2C(=O)[C@H](Br)[C@H]2S(=O)(=O)C12CC2(c1ccc(F)cc1)c1ccc(F)cc1 (single isomer, unassigned) = Not fulfilled
• CC1=C(C(=O)OC(c2ccccc2)c2ccccc2)N2C(=O)[C@H](Br)[C@H]2S(=O)(=O)C12CC2(C)c1ccccc1 (stereo partly shown) = Not fulfilled
• CC1=C(C(=O)OC(c2ccccc2)c2ccccc2)N2C(=O)[C@H](Cl)[C@H]2S(=O)(=O)C12CC2(c1ccccc1)c1ccccc1 (single isomer, unassigned) = Fulfilled
• CO[C@H]1C(=O)N2C(C(=O)N3CCCCC3)=C(C)C3(CC3(c3ccccc3)c3ccccc3)S(=O)(=O)[C@H]12 (stereo partly shown) = Fulfilled
• CO[C@H]1C(=O)N2C(C(=O)N3CCCC3)=C(C)C3(CC3(c3ccccc3)c3ccccc3)S(=O)(=O)[C@H]12 (stereo partly shown) = Fulfilled
• CC1=C(C(=O)N2CCCC2)N2C(=O)[C@H](Br)[C@H]2S(=O)(=O)C12CC2(c1ccccc1)c1ccccc1 (stereo partly shown) = Fulfilled

---

Biological target: cathepsin C (Bos taurus)
Construct: Purified cathepsin C from bovine spleen; from tissue; host or cells: bovine spleen
Assay: Selectivity against various proteases: cathepsin C (CTC)
Format: biochemical, bovine
Conditions: cathepsin C, bovine spleen, pH 5.4, 22° C., 10 minute preincubation; read-out: CTC IC50 (converted)
PROPERTY: IC50 (µM)

• CC1=C(C(=O)OC(c2ccccc2)c2ccccc2)N2C(=O)[C@H](Cl)[C@H]2S(=O)(=O)C12CC2(c1ccccc1)c1ccccc1 (single isomer, unassigned) = 60
• CO[C@H]1C(=O)N2C(C(=O)N3CCCC3)=C(C)C3(CC3(c3ccccc3)c3ccccc3)S(=O)(=O)[C@H]12 (stereo partly shown) = 9.99
• CC1=C(C(=O)N2CCCC2)N2C(=O)[C@H](Br)[C@H]2S(=O)(=O)C12CC2(c1ccccc1)c1ccccc1 (stereo partly shown) = 9.77
• CO[C@H]1C(=O)N2C(C(=O)N3CCCCC3)=C(C)C3(CC3(c3ccccc3)c3ccccc3)S(=O)(=O)[C@H]12 (stereo partly shown) = 10

---

Molecular target: aminopeptidase M (Sus scrofa, UniProt P15145)
Construct: Purified aminopeptidase M from porcine kidney; from tissue; host or cells: porcine kidney
Sequence (P15145 1-963): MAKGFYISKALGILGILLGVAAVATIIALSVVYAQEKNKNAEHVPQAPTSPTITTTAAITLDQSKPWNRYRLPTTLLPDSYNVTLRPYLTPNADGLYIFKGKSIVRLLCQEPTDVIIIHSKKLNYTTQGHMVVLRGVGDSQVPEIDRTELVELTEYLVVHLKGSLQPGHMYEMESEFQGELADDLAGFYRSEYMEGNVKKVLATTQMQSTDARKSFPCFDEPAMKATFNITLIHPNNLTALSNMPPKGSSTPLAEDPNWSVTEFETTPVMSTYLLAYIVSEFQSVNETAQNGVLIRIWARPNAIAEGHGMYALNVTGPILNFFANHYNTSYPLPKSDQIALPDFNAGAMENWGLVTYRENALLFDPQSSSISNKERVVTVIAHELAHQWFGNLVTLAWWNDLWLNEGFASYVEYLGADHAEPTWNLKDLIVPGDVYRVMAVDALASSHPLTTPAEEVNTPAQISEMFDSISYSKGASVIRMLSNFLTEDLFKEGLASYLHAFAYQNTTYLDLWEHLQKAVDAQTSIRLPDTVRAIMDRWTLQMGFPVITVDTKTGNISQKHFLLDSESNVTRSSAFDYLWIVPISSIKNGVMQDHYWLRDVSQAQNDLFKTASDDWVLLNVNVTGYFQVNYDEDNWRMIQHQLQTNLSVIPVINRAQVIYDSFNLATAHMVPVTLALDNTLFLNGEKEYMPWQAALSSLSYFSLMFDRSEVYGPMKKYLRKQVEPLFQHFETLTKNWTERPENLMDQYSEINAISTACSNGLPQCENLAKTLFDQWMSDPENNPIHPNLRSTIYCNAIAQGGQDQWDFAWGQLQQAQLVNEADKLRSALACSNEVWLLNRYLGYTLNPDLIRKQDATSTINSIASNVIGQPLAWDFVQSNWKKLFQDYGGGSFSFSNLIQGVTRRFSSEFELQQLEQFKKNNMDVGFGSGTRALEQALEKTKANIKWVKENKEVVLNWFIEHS
Assay: Selectivity against various proteases: aminopeptidase M (APM)
Format: biochemical, porcine
pIC50: −log10 of the molar value.
Below, each entry is listed alongside its reported pIC50.
PROPERTY: pIC50

* CC1=C(C(=O)OC(c2ccccc2)c2ccccc2)N2C(=O)[C@H](Br)[C@H]2S(=O)(=O)C12CC2(c1ccc(Cl)cc1)c1ccc(Cl)cc1 (single isomer, unassigned) | 4.26
* CC1=C(C(=O)OC(c2ccccc2)c2ccccc2)N2C(=O)[C@H](Br)[C@H]2S(=O)(=O)C12CC2(c1ccc(F)cc1)c1ccc(F)cc1 (single isomer, unassigned) | 4.40
* CCOC(=O)C1CC12C(C)=C(C(=O)OC(c1ccccc1)c1ccccc1)N1C(=O)[C@H](Br)[C@H]1S2(=O)=O (stereo partly shown) | 4.40
* CC1=C(C(=O)OC(c2ccccc2)c2ccccc2)N2C(=O)[C@H](Br)[C@H]2S(=O)(=O)C12CC2(C)c1ccccc1 (stereo partly shown) | 4.40
* CO[C@H]1C(=O)N2C(C(=O)N3CCCC3)=C(C)C3(CC3(c3ccccc3)c3ccccc3)S(=O)(=O)[C@H]12 (stereo partly shown) | 4.40
* CO[C@H]1C(=O)N2C(C(=O)OC(c3ccccc3)c3ccccc3)=C(C)C3(CC3(c3ccccc3)c3ccccc3)S(=O)(=O)[C@H]12 (stereo partly shown) | 5.00
* CO[C@H]1C(=O)N2C(C(=O)OCC(Cl)(Cl)Cl)=C(C)C3(CC3(c3ccccc3)c3ccccc3)S(=O)(=O)[C@H]12 (stereo partly shown) | 5.00

---

Target: trypsin (Bos taurus, UniProt P00760)
Construct: Purified trypsin from bovine pancreas; from tissue; host or cells: bovine pancreas
Sequence (P00760 24-246): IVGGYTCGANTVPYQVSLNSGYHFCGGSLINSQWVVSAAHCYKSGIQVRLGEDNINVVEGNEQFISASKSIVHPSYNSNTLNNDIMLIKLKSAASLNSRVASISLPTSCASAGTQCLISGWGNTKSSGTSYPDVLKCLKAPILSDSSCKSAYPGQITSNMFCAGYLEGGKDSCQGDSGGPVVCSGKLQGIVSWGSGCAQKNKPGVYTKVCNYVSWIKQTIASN
Assay: Selectivity against various proteases: trypsin (TRY)
Type: biochemical, bovine
pIC50: −log10 of the molar value.
pIC50: recorded values
PROPERTY: pIC50

- CO[C@H]1C(=O)N2C(C(=O)N3CCCC3)=C(C)C3(CC3(c3ccccc3)c3ccccc3)S(=O)(=O)[C@H]12 (stereo partly shown) [Example 10]: 4.40
- CC1=C(C(=O)OC(c2ccccc2)c2ccccc2)N2C(=O)[C@H](Br)[C@H]2S(=O)(=O)C12CC2(c1ccc(F)cc1)c1ccc(F)cc1 (single isomer, unassigned) [Example 13]: 4.40
- CO[C@H]1C(=O)N2C(C(=O)OC(c3ccccc3)c3ccccc3)=C(C)C3(CC3(c3ccccc3)c3ccccc3)S(=O)(=O)[C@H]12 (stereo partly shown) [Example 9]: 5.00
- CC1=C(C(=O)N2CCCC2)N2C(=O)[C@H](Br)[C@H]2S(=O)(=O)C12CC2(c1ccccc1)c1ccccc1 (stereo partly shown) [Example 6]: 4.41
